Values were extracted from patent US20260193285A1.

System: HCT-116 (human colon cancer cells)
Test: In vitro anti-tumor activity assay (MTT), HCT-116
Assay type: cell-based
Conditions: 72 hours, average of multiple measurements
Value type: pIC50
Please treat pIC50 as minus the base-10 logarithm of the molar concentration.

Query block: What value of pIC50 has been reported for the following compound? O=C1[O][Pt]2([NH][C@@H]3CCCC[C@H]3[NH]2)[O]C1=O [OXP, oxaliplatin]
Result block: 5.00

----------
Test system: MCF-7 (human breast cancer cells)
Test: In vitro anti-tumor activity assay (MTT), MCF-7
Assay type: cell-based
Details: 72 hours, average of multiple measurements
Value type: IC50 (µM)
Express it in µM; write the number only.

Query block: What does the record list as IC50 for O=C1[O][Pt]2([NH][C@@H]3CCCC[C@H]3[NH]2)[O]C1=O [OXP, oxaliplatin] ?
Result block: 17.5
